Biological target: 26S proteasome chymotrypsin-like activity (human)
Experiment: inhibitors of cellular proteasome chymotrypsin-like activity, dose response, counter-screen, cell-based, U2OS, luminescence, dry powder, set 2 (AID 488804)
Details: U2OS cells, Proteasome-Glo chymotrypsin luminescence
Value Kind: AC50

Here is how some molecules turned out for AC50.
O=C(Nc1ncc(-c2ccccc2)o1)c1cc(-c2ccccc2)on1 :: 38 µM
O=C(Nc1cn2ccccc2n1)c1cc(-c2ccccc2)on1 :: 6.99 µM
O=C(Nc1ncc2ccccc2n1)c1cc(-c2ccccc2)on1 :: 23.5 µM
Cc1cccc(NC(=O)c2cc(-c3ccccc3)on2)n1 :: 2.63 µM

The reported value for CCCCNC(=O)c1cc(-c2ccccc2)on1 in terms of AC50 is 38 µM
